Hello, the source for this data is paper PMC7660650, in case you need it.

Molecular target: Gal4-HNF4α (human HNF4α LBD) (Homo sapiens)
Construct: uniprot entry: P41235-1, residues 142-377; expressed in transfected cells; host or cells: HEK293T
Sequence (P41235 142-377): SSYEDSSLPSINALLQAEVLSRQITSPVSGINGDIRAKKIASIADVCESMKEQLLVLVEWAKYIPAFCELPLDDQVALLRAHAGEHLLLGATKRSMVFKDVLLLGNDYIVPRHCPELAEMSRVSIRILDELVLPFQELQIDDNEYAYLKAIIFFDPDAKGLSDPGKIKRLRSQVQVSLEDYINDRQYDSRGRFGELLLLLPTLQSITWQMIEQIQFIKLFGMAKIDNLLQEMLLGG
Assay: Hybrid Gal4-HNF4α reporter gene assay in transiently transfected HEK293T cells
Type: cell-based
Details: Table S1, primary screening, 50 µM
Kindly return True if reported HNF4a-screening_activity_(mean_of_n=2) is no lower than 0.9; return False if it is lower.

| compound | cat |
| --- | --- |
| O=C(O)CCc1ccc(Cl)cc1 | False |
| CC(=O)c1cc(Cl)ccc1O | True |
| CS(=O)(=O)NC(Cc1ccccc1)C(=O)O (centres unmarked) | True |
| O=C(O)CCc1ncc(-c2ccccc2)o1 | False |
| COc1cc(N)ncn1 | True |
| CN1CCN(c2ccccc2)CC1 | True |
| Nc1c(Cl)ccc2nsnc12 | True |
| COc1ccc(CCN)cc1OC | True |
| CNC(=O)c1cc(Cl)c(N)cc1OC | True |
| Oc1cccc2[nH]ccc12 [Prestw-Frag-3696, Oc1cccc2[nH]ccc12] | True |
| O=C1c2nccnc2C(O)N1c1ccc(Cl)cn1 (centres unmarked) | False |
| CN1CCN(c2nccc(N)n2)CC1 | True |
| CC(=O)N(CCC(=O)O)c1ccccc1 | True |
| CCOC(=O)c1cccnc1 | True |

====

Molecular target: Gal4-HNF4α (human HNF4α LBD) (Homo sapiens)
Construct: uniprot entry: P41235-1, residues 142-377; expressed in transfected cells; host or cells: HEK293T
Test: Hybrid Gal4-HNF4α reporter gene assay in transiently transfected HEK293T cells
Type: cell-based
Details: Table S1, primary screening, 50 µM

| compound | HNF4a-screening_activity_(mean_of_n=2) |
| --- | --- |
| CC(CO)Nc1ccccc1 (stereo not drawn) | 0.8925 |
| NC(=O)C(c1ccccc1)c1ccccc1 | 0.8824 |
| Nc1cnc2ccccc2n1 | 0.8882 |
